Target: SARS-CoV-2 M^pro (Severe acute respiratory syndrome coronavirus 2, UniProt P0DTD1)
Construct: This main protease is located in nsp5; purchased AnaSpec
Assay: biochemical
outcome measure: Percentage of activity of SARS-CoV-2 M^pro in the presence of compound (%)
Respond with the bare value in %.

Worked examples follow.
In: For the compound `COc1cc(-c2oc3cc(O)cc(O)c3c(=O)c2O)ccc1O` , report Percentage of activity of SARS-CoV-2 M^pro in the presence of compound.
Out: 8.56

In: Dear colleague, please send me the reported Percentage of activity of SARS-CoV-2 M^pro in the presence of compound for `O=C(/C=C/c1ccc(O)c(O)c1)O[C@H](Cc1ccc(O)c(O)c1)C(=O)O` when you can.
Out: 8.28

In: Note down Percentage of activity of SARS-CoV-2 M^pro in the presence of compound recorded for `Cc1cc(O)c2c(=O)c3c(O)cc(O)c4c5c(O)cc(O)c6c(=O)c7c(O)cc(C)c8c1c2c(c34)c(c78)c65`
Out: 4.95

Continuing:
In: Identify measured Percentage of activity of SARS-CoV-2 M^pro in the presence of compound associated with `O=c1cc(-c2ccc(O)c(O)c2)oc2cc(O)cc(O)c12`
Out: 10.10

---

Assay: Resazurin cell viability assay
Conditions: human, MRC-5 lung fibroblasts
This section presents molecules with their documented CC50 at 72 h values.
Answer format reminder: number followed by unit.

In: Please give the documented CC50 at 72 h of `Cc1cc(O)c2c(=O)c3c(O)cc(O)c4c5c(O)cc(O)c6c(=O)c7c(O)cc(C)c8c1c2c(c34)c(c78)c65`
Out: 55.5 µM

In: Return CC50 at 72 h (reported value) for this molecule: `COc1cc(-c2oc3cc(O)cc(O)c3c(=O)c2O)ccc1O`
Out: 36.8 µM

---

Molecular target: SARS-CoV-2 M^pro (Severe acute respiratory syndrome coronavirus 2, UniProt P0DTD1)
Construct: This main protease is located in nsp5; purchased AnaSpec
Assay: biochemical
outcome measure: IC50 (µM)
Supply the numeric figure in µM, leaving out any unit text.

In: Provide IC50 value for the following compound: `COc1cc(-c2oc3cc(O)cc(O)c3c(=O)c2O)ccc1O`
Out: 8.42

In: Tell us which IC50 value is on record for `O=C(/C=C/c1ccc(O)c(O)c1)O[C@H](Cc1ccc(O)c(O)c1)C(=O)O`
Out: 9.43

In: Tell us which IC50 value is on record for `O=c1cc(-c2ccc(O)c(O)c2)oc2cc(O)cc(O)c12`
Out: 11.8

Please examine the following record next.
In: Give the value of IC50 reported for the following: `Cc1cc(O)c2c(=O)c3c(O)cc(O)c4c5c(O)cc(O)c6c(=O)c7c(O)cc(C)c8c1c2c(c34)c(c78)c65`
Out: 23.3

---

Target: recombinant M^pro of SARS-CoV-2 (Severe acute respiratory syndrome coronavirus 2)
Construct: This main protease is located in nsp5; purchased Bio-Techne
Experiment: biochemical
Assay type: binding
We begin with a simple list: items and their reported pKd.
Would you please state pKd, meaning minus log10 of the concentration in mol/L, as a bare number?

In: For the compound `O=C(/C=C/c1ccc(O)c(O)c1)O[C@H](Cc1ccc(O)c(O)c1)C(=O)O` , give its measured pKd value.
Out: 4.81

In: Note pKd for the compound shown: `O=c1cc(-c2ccc(O)c(O)c2)oc2cc(O)cc(O)c12`
Out: 4.87

In: Name the recorded pKd of the item `COc1cc(-c2oc3cc(O)cc(O)c3c(=O)c2O)ccc1O` in your answer.
Out: 5.36

Note: attention shifts to another entry.
In: Specify reported pKd for the compound shown: `Cc1cc(O)c2c(=O)c3c(O)cc(O)c4c5c(O)cc(O)c6c(=O)c7c(O)cc(C)c8c1c2c(c34)c(c78)c65`
Out: 5.11

---

Biological target: MERS-CoV M^pro (Middle East respiratory syndrome-related coronavirus)
Sequence (K9N7C7 3248-3553 limits assumed): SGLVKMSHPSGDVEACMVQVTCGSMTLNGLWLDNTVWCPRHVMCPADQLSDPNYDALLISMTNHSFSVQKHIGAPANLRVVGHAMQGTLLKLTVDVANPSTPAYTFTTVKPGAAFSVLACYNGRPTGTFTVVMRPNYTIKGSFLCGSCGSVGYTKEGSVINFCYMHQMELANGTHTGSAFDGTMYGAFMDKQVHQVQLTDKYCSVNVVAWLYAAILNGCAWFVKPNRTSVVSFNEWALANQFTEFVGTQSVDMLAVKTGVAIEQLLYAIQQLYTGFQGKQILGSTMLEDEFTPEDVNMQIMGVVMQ
outcome measure: pIC50
Give only the number. pIC50 is defined as minus log10 of concentration in molar units.

In: Enter pIC50 (test system MERS-CoV M^pro (Middle East respiratory syndrome-related coronavirus)) for Cc1cc(O)c2c(=O)c3c(O)cc(O)c4c5c(O)cc(O)c6c(=O)c7c(O)cc(C)c8c1c2c(c34)c(c78)c65 [Hypericin]
Out: 4.30

From: paper PMC8952009
